System: NCI-H460 lung
Possible outcomes: yes for active, no for inactive

>>> df
                                    compound     measuredon  classlabel
 0  COC(=O)CCc1n(Cc2ccc3ccccc3c2)c2ccccc2[n+]1Cc1ccc2ccccc2c1  NCI-H460 lung          no
 1             CCCCCCCCCCCCCCCCn1cc[n+](C)c1  NCI-H460 lung          no
 2      CCCCN(CCCC)P(=O)(Oc1ccccc1)Oc1ccccc1  NCI-H460 lung          no
 3  COc1ccc(C2c3ccc4ccccc4c3Oc3ncn(CCCn4ccnc4)c(=N)c32)cc1OC (stereo not given)  NCI-H460 lung          no
 4  CCCCCCOC(=O)CC1=C(C)/C(=C/c2[nH]c(-c3ccc[nH]3)cc2OC)N=C1C  NCI-H460 lung         yes
 5  COc1cc(CSc2nc3ccc(Cl)cc3c(=O)n2Cc2ccccc2)cc(OC)c1OC  NCI-H460 lung          no
 6            CCCCCSc1ccc2nc(NC(=O)OCC)sc2c1  NCI-H460 lung          no
 7  CCOC(=O)c1ccc(N2NC(=O)/C(=C/c3ccc([N+](=O)[O-])o3)C2=O)cc1  NCI-H460 lung          no
 8  COc1ccc(C)c2sc(N(Cc3cccnc3)C(=O)c3ccc(C#N)cc3)nc12  NCI-H460 lung          no
 9  Cn1cnc([N+](=O)[O-])c1S(=O)(=O)Oc1ccc(Cl)cc1  NCI-H460 lung          no
10  Cc1cc(-c2nc3sc(C)cn3c2/C=N/N=C(N)N)c(C)s1  NCI-H460 lung          no
11  CC(C)(C)c1cc(C[P+](c2ccccc2)(c2ccccc2)c2ccccc2)cc(C(C)(C)C)c1O  NCI-H460 lung         yes
12        COc1ccc(Sc2[nH]c(C=O)c3ccccc23)cc1  NCI-H460 lung          no
13  Cc1nnn(C)c1-c1cnc2c3ccc(C(C)(C)O)cc3n([C@H](c3ccccc3)C3CCOCC3)c2c1  NCI-H460 lung          no
14  CCOc1ccccc1/C=N\N=C(N/N=C/c1ccccc1OCC)N/N=C/c1ccccc1OCC  NCI-H460 lung          no
15  c1cc[c]([Ge]([O]c2cccc3cccnc23)([c]2ccccc2)[c]2ccccc2)cc1  NCI-H460 lung          no
16  O=C(Nc1ccc(Cl)c(C(F)(F)F)c1)Nc1ccc(-c2cccnc2)cc1N1CCC(CO)CC1  NCI-H460 lung          no
17  CC[C@@]1(O)CC(OC2CC(N3CCOCC3)C(O)C(C)O2)c2c(O)c3c(c(O)c2[C@H]1O)C(=O)c1cccc(O)c1C3=O (stereo not given in full)  NCI-H460 lung         yes
18  Cc1ccc(-c2cc(C(=O)Nc3ccc(S(=O)(=O)N4CCCCC4)cc3)[nH]n2)c(O)c1  NCI-H460 lung          no
19  CCOc1ccc(-c2nc3ccc(-c4nc5ccc(N6CCN(C)CC6)cc5[nH]4)cc3[nH]2)cc1  NCI-H460 lung          no

* * *

Test system: TK-10 renal
Experiment: NCI tumour cell line growth inhibition, 48 h
measure: TGI

In [3]: df
Out[3]:
                                    molecule    result
 0  O=C1OC2(c3ccc(O)cc3Oc3cc(O)ccc32)c2cccc3cccc1c23   58.1 µM
 1  Cc1ccc(NC(=O)C2C3C=CC(O3)C2C(=O)O)cc1 (configuration not stated)  > 100 µM
 2         O=C(O)c1cnc2c(ccc3[nH]cccc32)c1=O  > 100 µM
 3  C[C@]12Cc3conc3C(O)=C1CC[C@@H]1C2CC[C@@]2(C)C1CC[C@@H]2O (some centres not stated)  > 100 µM
 4              CSc1nc(-c2ccccc2)[nH]c(=O)n1  > 100 µM
 5  CCCCCCCCCCCCCCCCc1c(C(=O)OC)nc(NC#N)[nH]c1=O   > 25 µM
 6  O=C(NC(CS)C(=O)O)c1c2ccccc2nc2ccccc12 (configuration not stated)  > 100 µM
 7  O=c1[nH]c2nc3ccccc3c(=O)n2/c1=C/c1ccccc1  > 100 µM
 8  CCOC(=O)C(C)NC(=O)NC12CC3CC(CC(F)(C3)C1)C2 (configuration not stated)  > 100 µM
 9  COc1ccccc1NC1Oc2cc3c(cc2C(c2cc(OC)c(OC)c(OC)c2)C1C)OCO3 (configuration not stated)  > 100 µM
10        O=C1c2cc3c(cc2CC12Cc1ccccc1C2)CCC3  > 100 µM
11  O=c1c2ccccc2n2c(-c3ccccc3O)nnc2n1-c1ccccc1  > 100 µM
12  COc1ccc(-c2cnc(-c3ccc(OC)cc3)n2-c2cc(OC)c(OC)c(OC)c2)cc1   39.2 µM
13  O=C(N/C(=C\c1ccccc1)c1nc2ccccc2c(=O)o1)c1ccccc1  > 100 µM
14  O=C1OC(c2ccc(O)cc2)(c2ccc(O)cc2)c2ccc(Cl)c3cccc1c23 (tested in a mixture with another compound)   52.6 µM
15  O=S1Nc2cccc(C(F)(F)F)c2S1 (configuration not stated)  > 100 µM
16  Cc1ncc(C(=O)Nc2ccc(CN3CCN(C)CC3)c(C(F)(F)F)c2)cc1C#Cc1cnc(N)c2ccc(C#N)cc12   2.82 µM
17  O=C(Nc1ccc(Cl)c(C(F)(F)F)c1)Nc1ccc(-c2cccnc2)cc1N1CCC(CO)CC1   4.76 µM
18  Cn1cnc([N+](=O)[O-])c1Sc1n[nH]c(-c2ccc(Cl)cc2)n1   43.8 µM
19  O=C(C[C@@H]1CCCN2CCCC[C@H]12)N1c2ccccc2Sc2ccc(Cl)cc21   35.5 µM
20  COC(=O)C(Cc1nc2ccc(Cl)cc2[nH]c1=O)C(=O)C(=O)Nc1cc(C)ccc1C (configuration not stated)  > 100 µM
21                    O=CCCn1[nH]c(=O)ccc1=O  > 100 µM

* * *

# reported TGI; entries follow
Tested on: DMS 273 small cell lung
Assay: NCI tumour cell line growth inhibition, 48 h
measure: TGI

>>> print(df.to_string())
                                    compound  measure    result
 0  COc1ccc(/C=C/c2onc3c(=O)n(C)nc(-c4ccccc4)c23)cc1      TGI  > 100 µM
 1  C[C@@H]1CC[C@@]2(C)OC(c3ccccc3)[C@H](CO)N2C1=O (stereo partly specified)      TGI  > 100 µM
 2  COc1ccc(OC2(c3cc(OC)ccc3OC)OC(=O)c3ccccc32)cc1 (stereo unspecified)      TGI  > 100 µM
 3  CC1(O)CC2C(CC1SC1CC3C(CC1(C)O)C3(C)C)C2(C)C (stereo unspecified)      TGI  > 100 µM
 4  O=C1C(Cl)C(c2ccccc2Cl)N1n1cnc2ccccc2c1=O (stereo unspecified)      TGI  > 100 µM
 5  CCOc1ccc(N(CC(=O)N2CC(=O)Nc3cc(C)c(C)cc32)C(C)=O)cc1      TGI  > 100 µM
 6         O/N=C1/CCCC/C1=C\c1ccc(Cl)c(Cl)c1      TGI   63.1 µM
 7  COC(=O)/C=C1\CCC2[C@@H](C(=O)CC3[C@]2(C)CCC[C@@]3(C)C(=O)OC)C1C (stereo partly specified)      TGI   52.4 µM
 8         O=C1CCCc2ccc([N+](=O)[O-])c(O)c21      TGI  > 100 µM
 9  Cc1nc2ccccc2c(=O)n1/N=C(\N=Nc1ccccc1)c1ccccc1Cl      TGI  > 100 µM
10                 C=CCCn1nc(-c2ccccc2)oc1=O      TGI  > 100 µM

* * *

System: COLO 205 colon
Experiment: NCI tumour cell line growth inhibition, 48 h
# reported log10 TGI; entries follow
measure: log10 TGI (log10 of the value in µM)

>>> df
                                   compound  quantitativeresult
0       Cc1nc2ccc(Cl)cc2c2c1CCN2c1ccc(F)cc1                1.75
1  O=C(NC(CS)C(=O)O)c1c2ccccc2nc2ccccc12 (stereo unspecified)                1.37
2  COc1ccc(Nc2ncc(I)c(NCCCNC(=O)C3CCC3)n2)cc1                1.09
3  CCOc1ccc(-c2nc3ccc(-c4nc5ccc(N6CCN(C)CC6)cc5[nH]4)cc3[nH]2)cc1                0.10
4  O=C(Nc1ccc(Cl)c(C(F)(F)F)c1)Nc1ccc(-c2cccnc2)cc1N1CCC(CO)CC1                0.50
5  COc1cc(CSc2nc3ccc(Cl)cc3c(=O)n2Cc2ccccc2)cc(OC)c1OC                0.61
6  CCOC(=O)c1ccc(N2NC(=O)/C(=C/c3ccc([N+](=O)[O-])o3)C2=O)cc1                0.98
7  COC(=O)/C=C1\CCC2[C@@H](C(=O)CC3[C@]2(C)CCC[C@@]3(C)C(=O)OC)C1C (stereo partly specified)                1.52
8  O=S(=O)(CC(Cl)c1ccccc1)c1nc2ccccc2s1 (stereo unspecified)                1.35
